Entries annotated with measured MBEC E. faecalis, CL
System: Enterococcus faecalis ATCC 29212
Type: cell-based
Settings: ATCC 29212, 24 h
Where a SMILES comes first, the peptide text is derived from it. Bridges are numbered along the chain shown (N, C = ends). Roman numbers before positions name the chains, in order. The star is where a group is joined. Myristoyl = CCCCCCCCCCCCCC(=O)*; Lauroyl = CCCCCCCCCCCC(=O)*
quantity_name: MBEC E. faecalis, CL (µg/mL)

>>> result("CCCCCCCCCCCCCC(=O)N[C@@H](CCCCN)C(=O)N[C@@H](CCCNC(=N)N)C(N)=O [Lipopeptide 4, C14-KR-NH2] (Myristoyl-Lys-Arg-NH2)")
256
>>> result("CCCCCCCCCCCC(=O)N[C@@H](CCCCN)C(=O)N[C@@H](CCCCN)C(=O)N[C@@H](CSSC[C@H](NC(=O)[C@H](CCCCN)NC(=O)[C@H](CCCCN)NC(=O)CCCCCCCCCCC)C(N)=O)C(N)=O [Lipopeptide 1, C12-KKC-NH2] (I: Lauroyl-Lys-Lys-Cys-NH2 / II: Lauroyl-Lys-Lys-Cys-NH2; disulfide I:3-II:3)")
128
>>> result("CCCCCCCCCCCC(=O)N[C@@H](CCCCN)C(=O)N[C@@H](CCCNC(=N)N)C(N)=O [Lipopeptide 2, C12-KR-NH2] (Lauroyl-Lys-Arg-NH2)")
128

###

Tested on: Staphylococcus aureus ATCC 25923
Assay: MBFIC assay (biofilm formation inhibition, resazurin)
Assay type: cell-based
Conditions: contact lenses (CL, Etafilcon A hydrogel) in 24-well plates, ca. 5 × 10^8 CFU/mL in MHB II, 37 °C, 18 h, resazurin, visual, triplicate
Where a SMILES comes first, the peptide text is derived from it. Bridges are numbered along the chain shown (N, C = ends). Roman numbers before positions name the chains, in order. The star is where a group is joined. Palmitoyl = CCCCCCCCCCCCCCCC(=O)*; Myristoyl = CCCCCCCCCCCCCC(=O)*; Lauroyl = CCCCCCCCCCCC(=O)*
Entries annotated with measured MBFIC S. aureus, CL
quantity_name: MBFIC S. aureus, CL (µg/mL)

>>> result("CCCCCCCCCCCCCC(=O)N[C@@H](CCCCN)C(=O)N[C@@H](CCCCN)C(=O)N[C@@H](CSSC[C@H](NC(=O)[C@H](CCCCN)NC(=O)[C@H](CCCCN)NC(=O)CCCCCCCCCCCCC)C(N)=O)C(N)=O [Lipopeptide 3, C14-KKC-NH2] (I: Myristoyl-Lys-Lys-Cys-NH2 / II: Myristoyl-Lys-Lys-Cys-NH2; disulfide I:3-II:3)")
32
>>> result("CCCCCCCCCCCCCC(=O)N[C@@H](CCCCN)C(=O)N[C@@H](CCCNC(=N)N)C(N)=O [Lipopeptide 4, C14-KR-NH2] (Myristoyl-Lys-Arg-NH2)")
2
>>> result("CCCCCCCCCCCC(=O)N[C@@H](CCCCN)C(=O)N[C@@H](CCCNC(=N)N)C(N)=O [Lipopeptide 2, C12-KR-NH2] (Lauroyl-Lys-Arg-NH2)")
128
>>> result("CCCCCCCCCCCCCCCC(=O)N[C@@H](CCCCN)C(=O)N[C@@H](CCCCN)C(=O)N[C@@H](CSSC[C@H](NC(=O)[C@H](CCCCN)NC(=O)[C@H](CCCCN)NC(=O)CCCCCCCCCCCCCCC)C(N)=O)C(N)=O [Lipopeptide 6, C16-KKC-NH2] (I: Palmitoyl-Lys-Lys-Cys-NH2 / II: Palmitoyl-Lys-Lys-Cys-NH2; disulfide I:3-II:3)")
64
>>> result("CCCCCCCCCCCCCCCC(=O)N[C@@H](CCCCN)C(=O)N[C@@H](CCCNC(=N)N)C(N)=O [Lipopeptide 8, C16-KR-NH2] (Palmitoyl-Lys-Arg-NH2)")
16

###

Assay: RP-HPLC retention to evaluate the hydrophobicity of lipopeptides
Assay type: physicochemical
Settings: chromatographic, Luna C18(2) 3.0 × 100 mm, 5.0 µm, linear 20–80% acetonitrile in water over 10 min, 0.1% formic acid, 0.5 mL/min, UV 214 nm, used to evaluate hydrophobicity
Where a SMILES comes first, the peptide text is derived from it. Bridges are numbered along the chain shown (N, C = ends). Roman numbers before positions name the chains, in order. The star is where a group is joined. Palmitoyl = CCCCCCCCCCCCCCCC(=O)*; Lauroyl = CCCCCCCCCCCC(=O)*
quantity_name: tR' (adjusted retention time) (min)

>>> result("CCCCCCCCCCCCCCCC(=O)N[C@@H](CCCCN)C(=O)NCC(=O)N[C@@H](CCCCN)C(N)=O [Lipopeptide 5, C16-KGK-NH2] (Palmitoyl-Lys-Gly-Lys-NH2)")
3.95
>>> result("CCCCCCCCCCCC(=O)N[C@@H](CCCCN)C(=O)N[C@@H](CCCNC(=N)N)C(N)=O [Lipopeptide 2, C12-KR-NH2] (Lauroyl-Lys-Arg-NH2)")
2.32
>>> result("CCCCCCCCCCCC(=O)N[C@@H](CCCCN)C(=O)N[C@@H](CCCCN)C(=O)N[C@@H](CSSC[C@H](NC(=O)[C@H](CCCCN)NC(=O)[C@H](CCCCN)NC(=O)CCCCCCCCCCC)C(N)=O)C(N)=O [Lipopeptide 1, C12-KKC-NH2] (I: Lauroyl-Lys-Lys-Cys-NH2 / II: Lauroyl-Lys-Lys-Cys-NH2; disulfide I:3-II:3)")
3.10

###

System: Proteus mirabilis PCM 543
Assay type: cell-based
Conditions: PCM 543, 18 h
Where a SMILES comes first, the peptide text is derived from it. Bridges are numbered along the chain shown (N, C = ends). Roman numbers before positions name the chains, in order. The star is where a group is joined. Palmitoyl = CCCCCCCCCCCCCCCC(=O)*; Myristoyl = CCCCCCCCCCCCCC(=O)*
Entries annotated with measured MIC P. mirabilis
quantity_name: MIC P. mirabilis (µg/mL)

>>> result("CCCCCCCCCCCCCC(=O)N[C@@H](CCCCN)C(=O)N[C@@H](CCCCN)C(=O)N[C@@H](CSSC[C@H](NC(=O)[C@H](CCCCN)NC(=O)[C@H](CCCCN)NC(=O)CCCCCCCCCCCCC)C(N)=O)C(N)=O [Lipopeptide 3, C14-KKC-NH2] (I: Myristoyl-Lys-Lys-Cys-NH2 / II: Myristoyl-Lys-Lys-Cys-NH2; disulfide I:3-II:3)")
512
>>> result("CCCCCCCCCCCCCCCC(=O)N[C@@H](CCCCN)C(=O)N[C@@H](CCCCN)C(=O)N[C@@H](CCCCN)C(N)=O [Lipopeptide 7, C16-KKK-NH2]")
256
>>> result("CCCCCCCCCCCCCCCC(=O)N[C@@H](CCCCN)C(=O)N[C@@H](CCCNC(=N)N)C(N)=O [Lipopeptide 8, C16-KR-NH2] (Palmitoyl-Lys-Arg-NH2)")
512
>>> result("CCCCCCCCCCCCCCCC(=O)N[C@@H](CCCCN)C(=O)NCC(=O)N[C@@H](CCCCN)C(N)=O [Lipopeptide 5, C16-KGK-NH2] (Palmitoyl-Lys-Gly-Lys-NH2)")
512
>>> result("CCCCCCCCCCCCCC(=O)N[C@@H](CCCCN)C(=O)N[C@@H](CCCNC(=N)N)C(N)=O [Lipopeptide 4, C14-KR-NH2] (Myristoyl-Lys-Arg-NH2)")
512

###

Entries annotated with measured tR' (adjusted retention time)
Test: RP-HPLC retention to evaluate the hydrophobicity of lipopeptides
Assay type: physicochemical
Conditions: chromatographic, Luna C18(2) 3.0 × 100 mm, 5.0 µm, linear 20–80% acetonitrile in water over 10 min, 0.1% formic acid, 0.5 mL/min, UV 214 nm, used to evaluate hydrophobicity
Where a SMILES comes first, the peptide text is derived from it. Bridges are numbered along the chain shown (N, C = ends). Roman numbers before positions name the chains, in order. The star is where a group is joined. Palmitoyl = CCCCCCCCCCCCCCCC(=O)*; Myristoyl = CCCCCCCCCCCCCC(=O)*
quantity_name: tR' (adjusted retention time) (min)

>>> result("CCCCCCCCCCCCCCCC(=O)N[C@@H](CCCCN)C(=O)N[C@@H](CCCNC(=N)N)C(N)=O [Lipopeptide 8, C16-KR-NH2] (Palmitoyl-Lys-Arg-NH2)")
4.06
>>> result("CCCCCCCCCCCCCC(=O)N[C@@H](CCCCN)C(=O)N[C@@H](CCCNC(=N)N)C(N)=O [Lipopeptide 4, C14-KR-NH2] (Myristoyl-Lys-Arg-NH2)")
3.29
>>> result("CCCCCCCCCCCCCC(=O)N[C@@H](CCCCN)C(=O)N[C@@H](CCCCN)C(=O)N[C@@H](CSSC[C@H](NC(=O)[C@H](CCCCN)NC(=O)[C@H](CCCCN)NC(=O)CCCCCCCCCCCCC)C(N)=O)C(N)=O [Lipopeptide 3, C14-KKC-NH2] (I: Myristoyl-Lys-Lys-Cys-NH2 / II: Myristoyl-Lys-Lys-Cys-NH2; disulfide I:3-II:3)")
3.88
>>> result("CCCCCCCCCCCCCCCC(=O)N[C@@H](CCCCN)C(=O)N[C@@H](CCCCN)C(=O)N[C@@H](CCCCN)C(N)=O [Lipopeptide 7, C16-KKK-NH2]")
2.98
>>> result("CCCCCCCCCCCCCCCC(=O)N[C@@H](CCCCN)C(=O)N[C@@H](CCCCN)C(=O)N[C@@H](CSSC[C@H](NC(=O)[C@H](CCCCN)NC(=O)[C@H](CCCCN)NC(=O)CCCCCCCCCCCCCCC)C(N)=O)C(N)=O [Lipopeptide 6, C16-KKC-NH2] (I: Palmitoyl-Lys-Lys-Cys-NH2 / II: Palmitoyl-Lys-Lys-Cys-NH2; disulfide I:3-II:3)")
4.63
